Test system: rodent lifetime carcinogenesis bioassay, tumor incidence TD50
test: carcinogenic potency in animals, long-term in vivo studies, CPDB compilation (AID 1745844)
conditions: mouse; strain B6C3F1; males; in feed; site: duodenum; lesion: several types; types named in the paper; dosed 104 weeks; study length 104 weeks

# record.smiles, TD50
rows = [
    ("O=C1c2ccccc2C(=O)N1SC(Cl)(Cl)Cl", "899 mg/kg/day"),
]

###

System: rodent lifetime carcinogenesis bioassay, tumor incidence TD50
test: carcinogenic potency in animals, long-term in vivo studies, CPDB compilation (AID 1745844)
conditions: rat; strain Cb/Sc; males; in drinking water; site: lung; lesion: several types; types named in the paper; dosed 48 weeks; study length 84 weeks

# record.smiles, TD50
records = [
    ("NNC(=O)c1ccncc1", "1070 mg/kg/day"),
]
